- TESTED TARGET: Kappa-type opioid receptor (Homo sapiens)
- Sequence (P41145 whole entry): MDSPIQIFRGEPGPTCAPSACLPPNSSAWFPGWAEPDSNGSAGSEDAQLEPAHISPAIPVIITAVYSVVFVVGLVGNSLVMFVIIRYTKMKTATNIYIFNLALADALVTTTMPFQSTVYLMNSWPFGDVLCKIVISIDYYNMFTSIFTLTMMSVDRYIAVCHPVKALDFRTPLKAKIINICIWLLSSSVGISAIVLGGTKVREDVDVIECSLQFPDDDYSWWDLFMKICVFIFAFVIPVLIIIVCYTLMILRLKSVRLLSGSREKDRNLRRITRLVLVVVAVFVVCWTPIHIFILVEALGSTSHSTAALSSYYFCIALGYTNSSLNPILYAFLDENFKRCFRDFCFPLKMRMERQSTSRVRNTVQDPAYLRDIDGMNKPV
OBSERVED PROPERTY: pKi
Recall that pKi is obtained by taking minus log10 of the concentration measured in molar.

Look over these answered cases.
# MOLECULE, pKi
data = [
    ("COc1ccc(-c2ccc(CCNC(=O)c3ccc4c(c3)C3(C)CCN(CC5CC5)C(C4)C3C)cc2)cc1OC (racemic)", 8.89),
    ("COc1cccc(-c2ccc(CCNC(=O)c3ccc4c(c3)C3(C)CCN(CC5CC5)C(C4)C3C)cc2)c1 (racemic)", 9.66),
    ("C[C@H]1[C@H]2Cc3ccc(C(=O)NCCc4ccc(-c5ccc(O)cc5)cc4)cc3[C@]1(C)CCN2CC1CC1", 9.44),
]

Data request: Which pKi is listed for CC1C2Cc3ccc(O)cc3C1(C)CCN2CC1CC1 (racemic) ?
Data returned: 10.15

Data request: Which measured pKi value corresponds to CC1C2Cc3ccc(C(=O)NCCc4ccc(-c5ccc(OC(F)F)cc5)cc4)cc3C1(C)CCN2CC1CC1 (racemic) ?
Data returned: 8.57

Data request: Can you share its pKi? I mean this molecule: CC1C2Cc3ccc(C(=O)NCCc4ccc(-c5ccc(OC(F)(F)F)cc5)cc4)cc3C1(C)CCN2CC1CC1 (racemic)
Data returned: 8.28

Data request: Give its pKi value. Item: COc1ccc2cc(CCNC(=O)c3ccc4c(c3)C3(C)CCN(CC5CC5)C(C4)C3C)ccc2c1 (racemic)
Data returned: 9.35

Data request: Any idea what pKi was measured for COc1ccc(-c2ccc(CCNC(=O)c3ccc4c(c3)C3(C)CCN(CC5CC5)C(C4)C3C)cc2)cc1 (racemic) ?
Data returned: 8.82

Recorded values, source ChEMBL document CHEMBL2203245.
